assay.comment: Cmax in HIV-infected patient at 300 mg, qd co-administered with 100 mg minocycline and 250 mg valporic acid, bid for 15 days
Type: ADME, organism-based
Design: dose 300 mg
setup.conditions: human, in vivo
measurement.type: Cmax (ng/mL)
Numbers only; they are read as ng/mL.

Bench note: what Cmax did COC(=O)N[C@H](C(=O)N[C@@H](Cc1ccccc1)[C@@H](O)CN(Cc1ccc(-c2ccccn2)cc1)NC(=O)[C@@H](NC(=O)OC)C(C)(C)C)C(C)(C)C [ATAZANAVIR] show? 2600

----------
assay.comment: Cmax in HIV-infected patient at 100 mg, qd co-administered with 100 mg minocycline and 250 mg valporic acid, bid for 15 days
Assay type: ADME, organism-based
Parameters: dose 100 mg
setup.conditions: human, in vivo
measurement.type: Cmax (µg/mL)
Numbers only; they are read as µg/mL.

Bench note: what Cmax did CC(C)c1nc(CN(C)C(=O)N[C@H](C(=O)N[C@@H](Cc2ccccc2)C[C@H](O)[C@H](Cc2ccccc2)NC(=O)OCc2cncs2)C(C)C)cs1 [RITONAVIR] show? 0.884

----------
assay.comment: AUC (0 to 24 hrs) in HIV-infected patient at 300 mg, qd co-administered with 100 mg minocycline and 250 mg valporic acid, bid for 15 days
Format: ADME, organism-based
Set-up: time < 24 hr, dose 300 mg
setup.conditions: human, plasma
measurement.type: AUC at 24 h
Show the value, then the unit it is measured in.

Bench note: what AUC at 24 h did COC(=O)N[C@H](C(=O)N[C@@H](Cc1ccccc1)[C@@H](O)CN(Cc1ccc(-c2ccccn2)cc1)NC(=O)[C@@H](NC(=O)OC)C(C)(C)C)C(C)(C)C show? 33500 ng·h/mL

----------
assay.comment: AUC (0 to 24 hrs) in HIV-infected patient at 300 mg, qd co-administered with 100 mg minocycline, bid for 15 days
Format: ADME, organism-based
Set-up: dose 300 mg, time < 24 hr
setup.conditions: human, plasma
measurement.type: AUC at 24 h
Show the value, then the unit it is measured in.

Bench note: what AUC at 24 h did COC(=O)N[C@H](C(=O)N[C@@H](Cc1ccccc1)[C@@H](O)CN(Cc1ccc(-c2ccccn2)cc1)NC(=O)[C@@H](NC(=O)OC)C(C)(C)C)C(C)(C)C show? 33100 ng·h/mL

Data provenance: ChEMBL document CHEMBL1629549
